Below is a list of entries, each paired with its recorded self-splicing fitness (ln) value.
# protocol_notes: self-splicing fitness, log relative to wild type (ln ratio); higher = more splicing; Tetrahymena group I intron in knt gene, E. coli kanamycin selection, DiMSum; sequences stand for … in CUCUCU…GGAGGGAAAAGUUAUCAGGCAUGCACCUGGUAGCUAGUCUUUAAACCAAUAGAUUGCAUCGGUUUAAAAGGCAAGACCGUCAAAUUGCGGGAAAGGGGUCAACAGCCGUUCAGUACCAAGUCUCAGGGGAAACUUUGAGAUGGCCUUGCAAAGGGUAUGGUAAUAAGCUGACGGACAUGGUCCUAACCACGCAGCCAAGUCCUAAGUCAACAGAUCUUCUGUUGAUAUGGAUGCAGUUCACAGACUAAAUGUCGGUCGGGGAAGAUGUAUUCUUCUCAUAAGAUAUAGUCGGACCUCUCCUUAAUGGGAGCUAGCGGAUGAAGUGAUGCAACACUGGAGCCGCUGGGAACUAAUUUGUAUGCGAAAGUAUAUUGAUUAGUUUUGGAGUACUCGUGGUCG;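 further: selection with 25 µg/mL kanamycin versus none on LB agar overnight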
# study_conditions: 37 °C

[
  {
    "residues": "GACGAGCAAUAUUACGGUUA",
    "self-splicing fitness (ln)": -0.972
  },
  {
    "residues": "CAUUAGCAAUAUUACGUCGA",
    "self-splicing fitness (ln)": -2.05
  },
  {
    "residues": "AUGGAGCAAUAUUACGUUUU",
    "self-splicing fitness (ln)": -2.05
  },
  {
    "residues": "CUUUAGCAAUAUUACGCAUG",
    "self-splicing fitness (ln)": -1.96
  }
]
